targetSystem: UniProt:Q9EXV5
testDescription: Enzyme inhibition kinetics (acylation/deacylation, competition with nitrocefin)
runParameters: K i, determined at steady-state, competition with 100 µM nitrocefin
Collected pKi values appear next to each entry.
The meaning of pKi here: minus log10 of the concentration in molar units.

Recorded results for 3 molecules are shown here.
# molecule, pKi
data = [
    ("O=C(O)[C@H]1/C(=C/CO)O[C@@H]2CC(=O)N21 [Clavulanic acid]", 7.00),
    ("C[C@]1(Cn2ccnn2)[C@H](C(=O)O)N2C(=O)C[C@H]2S1(=O)=O [Tazobactam]", 7.77),
    ("CC1(C)[C@H](C(=O)O)N2C(=O)C[C@H]2S1(=O)=O [Sulbactam]", 7.21),
]

Lab note: next molecule to report on.
Prompt: For the molecule CC#CCC(C)C(O)C=CC1C(O)CC2Oc3c(CCCC(=O)O)cccc3C21 (stereo not shown) [ZINC03787097] , give its reported pKi.
Response: 6.41

* * *

Test system: E. coli DH5α (Null Plasmid)
testDescription: MIC by micro-dilution, null plasmid control strain
Type: cell-based
runParameters: Escherichia coli; in combinations clavulanic acid, sulbactam, tazobactam at 4 µg/ml, ZINC03787097 at 20 µg/ml; read-out: MIC DH5α(Null Plasmid)
measuredProperty: MIC
Field: value (include unit after the number)

# smilesString, MIC
measured = [
    ("CC1(C)S[C@@H]2[C@H](NC(=O)[C@H](N)c3ccccc3)C(=O)N2[C@H]1C(=O)O", "2 µg/mL"),
    ("CC(C)(O/N=C(\\C(=O)N[C@@H]1C(=O)N2C(C(=O)[O-])=C(C[n+]3ccccc3)CS[C@H]12)c1csc(N)n1)C(=O)O", "0.25 µg/mL"),
]

Lab note: next molecule to report on.
Prompt: Identify measured MIC obtained with E. coli DH5α (Null Plasmid) for CO[C@@]1(NC(=O)Cc2cccs2)C(=O)N2C(C(=O)O)=C(COC(N)=O)CS[C@@H]21 .
Response: 2 µg/mL

* * *

targetSystem: CTX-M-15 (Escherichia coli, UniProt Q9EXV5)
Collected IC50 values appear next to each entry.
Output spec: scalar in nM, unitless text.

# compound, targetSystem, IC50 [nM]
rows = [
    ("C[C@]1(Cn2ccnn2)[C@H](C(=O)O)N2C(=O)C[C@H]2S1(=O)=O [Tazobactam]", "CTX-M-15 (Escherichia coli, UniProt Q9EXV5)", 1),
    ("O=C(O)[C@H]1/C(=C/CO)O[C@@H]2CC(=O)N21 [Clavulanic acid]", "CTX-M-15 (Escherichia coli, UniProt Q9EXV5)", 14),
    ("CC1(C)[C@H](C(=O)O)N2C(=O)C[C@H]2S1(=O)=O [Sulbactam]", "CTX-M-15 (Escherichia coli, UniProt Q9EXV5)", 212),
]

Prompt: For the compound CC#CCC(C)C(O)C=CC1C(O)CC2Oc3c(CCCC(=O)O)cccc3C21 (stereo not shown) [ZINC03787097] , give its reported IC50.
Response: 180

* * *

Collected MIC values appear next to each entry.
Test system: E. coli DH5α transformed with recombinant bla CTX-M-15 (pQE-2-CTX-M-15)
testDescription: MIC by micro-dilution, β-lactams alone or with inhibitors
Assay type: cell-based
runParameters: Escherichia coli, read-out: MIC DH5α(pQE-2-CTX-M-15), E. coli DH5α with bla CTX-M-15 cloned from E. cloacae EC-15; in combinations clavulanic acid, sulbactam, tazobactam at 4 µg/ml, ZINC03787097 at 20 µg/ml
Output spec: scalar in µg/mL, unitless text.

Recorded results for 2 molecules are shown here.
# molecule, targetSystem, MIC, µg/mL
records = [
    ("CO[C@@]1(NC(=O)Cc2cccs2)C(=O)N2C(C(=O)O)=C(COC(N)=O)CS[C@@H]21", "E. coli DH5α transformed with recombinant bla CTX-M-15 (pQE-2-CTX-M-15)", 16),
    ("CO/N=C(\\C(=O)N[C@@H]1C(=O)N2C(C(=O)[O-])=C(C[N+]3(C)CCCC3)CS[C@H]12)c1csc(N)n1 [Cefepime]", "E. coli DH5α transformed with recombinant bla CTX-M-15 (pQE-2-CTX-M-15)", 125),
]

Prompt: For the molecule CC(C)(O/N=C(\C(=O)N[C@@H]1C(=O)N2C(C(=O)[O-])=C(C[n+]3ccccc3)CS[C@H]12)c1csc(N)n1)C(=O)O , give its reported MIC.
Response: 4

Prompt: For the molecule C[C@H]1[C@H](NC(=O)/C(=N\OC(C)(C)C(=O)O)c2csc(N)n2)C(=O)N1S(=O)(=O)O , give its reported MIC.
Response: 16

* * *

targetSystem: CTX-M-15 (Escherichia coli, UniProt Q9EXV5)
runParameters: K m for good substrates; for poor substrates (ceftazidime, cefepime, aztreonam) determined as K i against 100 µM nitrocefin
Protocol: The inhibitors used were Clavulanic acid, Sulabctam, Tazobactam and ZINC03787097. Hydrolysis of β-lactam antibiotics was detected by monitoring the variation in the absorbance due to cleavage of β-lactam ring in 50 mM phosphate buffer, pH 7.0 [28]. All the measurements were taken in triplicate on Shimadzu UV-VIS spectrophotometer (UV-1800). The reaction was performed in a total volume of 500 µl at 30°C. […]
Please enter fulfilled where K m or K i is greater than or equal to 30 µM, and not fulfilled where it is lower.

Use the examples below as a reference point.
# smilesString, targetSystem, assignedCategory
rows = [
    ("CO/N=C(\\C(=O)N[C@@H]1C(=O)N2C(C(=O)O)=C(CSc3nc(=O)c(=O)[nH]n3C)CS[C@H]12)c1csc(N)n1", "CTX-M-15 (Escherichia coli, UniProt Q9EXV5)", "fulfilled"),
    ("CO/N=C(\\C(=O)N[C@@H]1C(=O)N2C(C(=O)O)=C(COC(N)=O)CS[C@H]12)c1ccco1", "CTX-M-15 (Escherichia coli, UniProt Q9EXV5)", "not fulfilled"),
    ("CO/N=C(\\C(=O)N[C@@H]1C(=O)N2C(C(=O)O)=C(COC(C)=O)CS[C@H]12)c1csc(N)n1", "CTX-M-15 (Escherichia coli, UniProt Q9EXV5)", "fulfilled"),
    ("CC(C)(O/N=C(\\C(=O)N[C@@H]1C(=O)N2C(C(=O)[O-])=C(C[n+]3ccccc3)CS[C@H]12)c1csc(N)n1)C(=O)O", "CTX-M-15 (Escherichia coli, UniProt Q9EXV5)", "fulfilled"),
    ("O=C(Cc1cccs1)N[C@@H]1C(=O)N2C(C(=O)O)=C(/C=C/c3ccc([N+](=O)[O-])cc3[N+](=O)[O-])CS[C@H]12", "CTX-M-15 (Escherichia coli, UniProt Q9EXV5)", "fulfilled"),
    ("CCN1CCN(C(=O)N[C@@H](C(=O)N[C@@H]2C(=O)N3[C@@H]2SC(C)(C)[C@@H]3C(=O)O)c2ccccc2)C(=O)C1=O", "CTX-M-15 (Escherichia coli, UniProt Q9EXV5)", "fulfilled"),
]

From here, focus on the item given below.
Prompt: Check this compound for K m or K i at or above 30 µM: CC1(C)S[C@@H]2[C@H](NC(=O)[C@H](N)c3ccccc3)C(=O)N2[C@H]1C(=O)O
Response: not fulfilled

* * *

Collected MIC values appear next to each entry.
Tested on: E. coli DH5α (Null Plasmid)
testDescription: MIC by micro-dilution, null plasmid control strain
Assay type: cell-based
runParameters: Escherichia coli; in combinations clavulanic acid, sulbactam, tazobactam at 4 µg/ml, ZINC03787097 at 20 µg/ml; read-out: MIC DH5α(Null Plasmid)
Output spec: scalar in µg/mL, unitless text.

# compound, MIC [µg/mL]
data = [
    ("CO/N=C(\\C(=O)N[C@@H]1C(=O)N2C(C(=O)O)=C(COC(N)=O)CS[C@H]12)c1ccco1 [Cefuroxime]", 1),
    ("CO/N=C(\\C(=O)N[C@@H]1C(=O)N2C(C(=O)O)=C(CSc3nc(=O)c(=O)[nH]n3C)CS[C@H]12)c1csc(N)n1 [Ceftriaxone]", 0.06),
    ("CCN1CCN(C(=O)N[C@@H](C(=O)N[C@@H]2C(=O)N3[C@@H]2SC(C)(C)[C@@H]3C(=O)O)c2ccccc2)C(=O)C1=O [Piperacillin]", 1),
]

Lab note: next compound to report on.
Prompt: For the compound CO/N=C(\C(=O)N[C@@H]1C(=O)N2C(C(=O)O)=C(COC(C)=O)CS[C@H]12)c1csc(N)n1 [Cefotaxime] , give its reported MIC.
Response: 0.25
